Give measured IC50 for each item. Keep answers brief.
# Test system: CCRF-CEM
# ASSAY EXPLANATION: Cytotoxicity against vinblastine-resistant human CCRF-CEM cells after 72 hrs by XTT assay
# Assay type: functional, cell-based
Quick note: give the figure in µM, leave out the unit.

Query: Name the recorded IC50 for O=C(Nc1ccc(N(CCCl)CCCl)cc1)Nc1cccc(OCCN2CCCC2)c1 .
Response: 4.2

Query: Name the recorded IC50 for O=C(Nc1ccc(N(CCCl)CCCl)cc1)Nc1cccc(OCCN2CCOCC2)c1 .
Response: 1.13

Query: Name the recorded IC50 for CN(C)CCCNC(=O)c1cccc(NC(=O)Nc2ccc(N(CCCl)CCCl)cc2)c1.Cl .
Response: 44

Query: Name the recorded IC50 for Cl.O=C(Nc1ccc(C(=O)N2CCC(N3CCCCC3)CC2)cc1)Nc1ccc(N(CCCl)CCCl)cc1 .
Response: 32.2

Query: Name the recorded IC50 for Cl.O=C(Nc1ccc(C(=O)NCCN2CCOCC2)cc1)Nc1ccc(N(CCCl)CCCl)cc1 .
Response: 29.8

---

Give measured pIC50 for each item. Keep answers brief.
# System: MX1
# ASSAY EXPLANATION: Cytotoxicity against human MX1 cells after 72 hrs by SRB assay
# Assay type: functional, cell-based
# CONDITION SET: MX1, 72 h
Please keep in mind that pIC50 is minus log10 of the molar concentration; only the number is needed.

Query: Item: CN(C)CCCNC(=O)c1cccc(NC(=O)Nc2ccc(N(CCCl)CCCl)cc2)c1.Cl Test system: MX1 Read-out: pIC50 Value: ?
Response: 5.63

Query: Item: Cl.O=C(Nc1ccc(N(CCCl)CCCl)cc1)Nc1cccc(C(=O)NCCN2CCOCC2)c1 Test system: MX1 Read-out: pIC50 Value: ?
Response: 5.84

Query: Item: Cl.O=C(Nc1ccc(OCCN2CCCCC2)cc1)Nc1ccc(N(CCCl)CCCl)cc1 Test system: MX1 Read-out: pIC50 Value: ?
Response: 6.82

Query: Item: O=C(Nc1ccc(N(CCCl)CCCl)cc1)Nc1cccc(OCCN2CCCCC2)c1 Test system: MX1 Read-out: pIC50 Value: ?
Response: 6.72

Query: Item: Cl.O=C(Nc1ccc(N(CCCl)CCCl)cc1)Nc1cccc(C(=O)N2CCC(N3CCCCC3)CC2)c1 Test system: MX1 Read-out: pIC50 Value: ?
Response: 5.65

Query: Item: Cl.O=C(Nc1ccc(OCCN2CCCC2)cc1)Nc1ccc(N(CCCl)CCCl)cc1 Test system: MX1 Read-out: pIC50 Value: ?
Response: 6.31

Query: Item: Cl.O=C(Nc1ccc(N(CCCl)CCCl)cc1)Nc1cccc(C(=O)NCCN2CCCC2)c1 Test system: MX1 Read-out: pIC50 Value: ?
Response: 5.66

Query: Item: Cl.O=C(Nc1ccc(C(=O)NCCN2CCCC2)cc1)Nc1ccc(N(CCCl)CCCl)cc1 Test system: MX1 Read-out: pIC50 Value: ?
Response: 5.63

Query: Item: Cl.O=C(Nc1ccc(C(=O)NCCN2CCOCC2)cc1)Nc1ccc(N(CCCl)CCCl)cc1 Test system: MX1 Read-out: pIC50 Value: ?
Response: 5.47

Query: Item: CN(C)CCOc1ccc(NC(=O)Nc2ccc(N(CCCl)CCCl)cc2)cc1.Cl Test system: MX1 Read-out: pIC50 Value: ?
Response: 6.55

Query: Item: Cl.O=C(Nc1ccc(C(=O)NCCN2CCCCC2)cc1)Nc1ccc(N(CCCl)CCCl)cc1 Test system: MX1 Read-out: pIC50 Value: ?
Response: 5.36

Query: Item: CN(C)CCNC(=O)c1ccc(NC(=O)Nc2ccc(N(CCCl)CCCl)cc2)cc1.Cl Test system: MX1 Read-out: pIC50 Value: ?
Response: 5.96

Query: Item: CN(C)CCNC(=O)c1cccc(NC(=O)Nc2ccc(N(CCCl)CCCl)cc2)c1.Cl Test system: MX1 Read-out: pIC50 Value: ?
Response: 6.24

Query: Item: Cl.O=C(Nc1ccc(C(=O)N2CCC(N3CCCCC3)CC2)cc1)Nc1ccc(N(CCCl)CCCl)cc1 Test system: MX1 Read-out: pIC50 Value: ?
Response: 5.44

Query: Item: CN(C)CCCNC(=O)c1ccc(NC(=O)Nc2ccc(N(CCCl)CCCl)cc2)cc1.Cl Test system: MX1 Read-out: pIC50 Value: ?
Response: 5.95

Query: Item: CN(C)CCCOc1ccc(NC(=O)Nc2ccc(N(CCCl)CCCl)cc2)cc1.Cl Test system: MX1 Read-out: pIC50 Value: ?
Response: 6.59

Query: Item: Cl.O=C(Nc1ccc(N(CCCl)CCCl)cc1)Nc1cccc(C(=O)NCCN2CCCCC2)c1 Test system: MX1 Read-out: pIC50 Value: ?
Response: 6.14

Data origin, for the record: ChEMBL document CHEMBL1641520
